- tested target: T1, 人B7-H3变体1(4Ig-B7-H3) on stable cells 293-h4Ig-B7-H3-copGFP (human, UniProt Q5ZPR3 29-534)
- T1 construct: Full-length CDS cloned in pCDH-EF1-T2A-copGFP and expressed on stably transduced cells; residues left by T2A cleavage not described
- T1 sequence: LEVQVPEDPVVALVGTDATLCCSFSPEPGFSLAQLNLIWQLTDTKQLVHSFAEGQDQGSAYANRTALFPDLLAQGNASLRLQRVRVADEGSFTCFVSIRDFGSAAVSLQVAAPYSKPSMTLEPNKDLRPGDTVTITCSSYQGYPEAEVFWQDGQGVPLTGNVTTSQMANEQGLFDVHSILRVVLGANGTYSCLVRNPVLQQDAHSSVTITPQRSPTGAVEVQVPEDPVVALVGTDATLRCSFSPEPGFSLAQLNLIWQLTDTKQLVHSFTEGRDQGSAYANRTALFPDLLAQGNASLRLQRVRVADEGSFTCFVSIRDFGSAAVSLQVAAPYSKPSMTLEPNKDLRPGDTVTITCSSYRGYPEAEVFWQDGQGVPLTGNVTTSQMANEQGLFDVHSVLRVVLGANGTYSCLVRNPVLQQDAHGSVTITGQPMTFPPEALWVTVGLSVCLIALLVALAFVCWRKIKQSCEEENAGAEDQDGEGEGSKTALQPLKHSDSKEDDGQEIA
- assay explanation: FACS, 293-h4Ig-B7-H3-copGFP stable cells

- binder: "scFv-27B4-H1-L1 (scFv, VH-linker-VL in phage display vector pXY, expressed in TG1, purified on a nickel column) scFv: QVQLVQSGAEVKKPGASVKVSCKASGYTFTTYWMHWVRQAPGQGLEWMGIIYPGDGGSSYAQKFQGRVTMTRDTSTSTVYMELSSLRSEDTAVYYCARGGNYISFPMYYWGQGTLVTVSSGGGGSGGGGSGGGGSGGGGASDIQMTQSPSSLSASMGDRVTITCKASRGVSTALNWYQQKPGKAPKLLIYWASSLQSGVPSRFSGSGSGTDFTLTISSLQPEDFATYYCQQHYDTPYTFGQGTKLEIK"
  binding result: "binds"
- binder: "scFv-27B4-H5-L2 (scFv, VH-linker-VL in phage display vector pXY, expressed in TG1, purified on a nickel column) scFv: QVQLVESGGGVVQPGRSLRLSCKASGYTFTTYWMHWVRQAPGKGLEWVAVIYPGDGGSYYTDSVKGRFTISRDNSKNTLYLQMNSLRAEDTAVYYCARGGNYISFPMYYWGQGTLVTVSSGGGGSGGGGSGGGGSGGGGASVIWMTQSPSLLSASTGDRVTISCKASRGVSTALAWYQQKPGKAPELLIYWASTLQSGVPSRFSGSGSGTDFTLTISCLQSEDFATYYCQQHYDTPYTFGQGTKLEIK"
  binding result: "binds"
